These entries and their values trace back to patent US20210395344A1.

target: SARS-CoV-2 S1 (antigen of the Carterra SPR kinetics) (SARS-CoV-2, UniProt P0DTC2 16-685); assay: Carterra SPR
Each item that follows carries a reported kon.
parameter measured: kon (M⁻¹ s⁻¹)

* 1-10 (antibody, V domains shown, also called variant 1-10) VH: EVQLLESGGGLVQPGGSLRLSCAASGFTFSSYDMSWVRQAPGKGLEWVSVISGSGGSTYYADSVKGRFTISRDNSKNTLYLQMNSLRAEDTAVYYCAKGPLVGWYFDLWGQGTLVTVSS VL: QSALTQPASVSGSPGQSITISCTGTSSNVGSYNLVSWYQQHPGKAPKLMIYEGTKRPSGVSNRFSGSKSGNTASLTISGLQAEDEADYYCCSYAGSSSFVVFGGGTKLTVL | 1.04e+06
* 1-47 (antibody, V domains shown, also called variant 1-47) VH: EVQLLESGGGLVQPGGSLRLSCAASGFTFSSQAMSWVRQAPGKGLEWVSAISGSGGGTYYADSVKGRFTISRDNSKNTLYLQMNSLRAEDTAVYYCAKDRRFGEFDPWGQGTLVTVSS VL: QSALTQPASVSGSPGQSITISCTGTSSGVGSYNLVSWYQQHPGKAPKLMIYEGIKRPSGVSNRFSGSKSGNTASLTISGLQAEDEADYYCCSYAGSSSFVVFGGGTKLTVL | 6320
* 1-42 (antibody, V domains shown, also called variant 1-42) VH: EVQLLESGGGLVQPGGSLRLSCAASGVTFSSYAMSWVRQAPGKGLEWVSAITGSGGSTYYADSVKGRFTISRDNSKNTLYLQMNSLRAEDTAVYYCAKHGSGTIFGVVIAKYYFDYWGQGTLVTVSS VL: QSALTQPASVSGSPGQSITISCTGTSSDVGRYNLVSWYQQHPGKAPKLMIYEGGKRPSGVSNRFSGSKSGNTASLTISGLQAEDEADYYCCSYASSSTLVFGGGTKLTVL | 9.1e+08
* 1-5 (antibody, V domains shown, also called variant 1-5) VH: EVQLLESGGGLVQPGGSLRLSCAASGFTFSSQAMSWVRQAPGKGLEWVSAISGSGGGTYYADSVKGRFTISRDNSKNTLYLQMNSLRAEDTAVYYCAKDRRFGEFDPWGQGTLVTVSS VL: QSALTQPASVSGSPGQSITISCTGTSSGVGSYNLVSWYQQHPGKAPKLMIYEASKRPSGVSNRFSGSKSGNTASLTISGLQAEDEADYYCCSYAGSYTFAVFGGGTKLTVL | 2150
* 1-7 (antibody, V domains shown, also called variant 1-7) VH: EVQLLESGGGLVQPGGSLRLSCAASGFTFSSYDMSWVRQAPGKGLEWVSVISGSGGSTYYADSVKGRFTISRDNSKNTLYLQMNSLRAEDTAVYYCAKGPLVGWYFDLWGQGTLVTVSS VL: QSALTQPASVSGSPGQSITISCTGTSSDFGSYNLVSWYQQHPGKAPKLMIYEGNKRPSGVSNRFSGSKSGNTASLTISGLQAEDEADYYCCSYAGSSTFVVFGGGTKLTVL | 1.34e+06
